meta.source: patent US9278994B2

System: EpiDerm (EPI-200) skin tissue
Assay: Skin tissue toxicity, EpiDerm skin model with MTT assay
Assay type: cell-based
Settings: tissue viability (MTT), treated 20 hr
Where a SMILES comes first, the peptide text is derived from it. [ ]: non-standard residue; d: D form. The star is where a group is joined. Palmitoyl = CCCCCCCCCCCCCCCC(=O)*
Item-by-item account of Toxicity EpiDerm

compound: C[C@@H](O)[C@H](NC(=O)[C@H]1CCCN1C(=O)[C@@H](N)CCCCN)C(=O)O [HB2090, K-dPT-OH, reference compound] (H-Lys-[dP]-Thr-OH)
Toxicity EpiDerm: >2000 µg/mL

compound: CCCCCCCCCCCCCCCC(=O)N[C@@H](CCCCN)C(=O)N1CCC[C@H]1C(=O)N[C@@H](C)C(N)=O [HB2208, Pal-KPA-NH2] (Palmitoyl-Lys-Pro-Ala-NH2)
Toxicity EpiDerm: >2000 µg/mL

compound: CCCCCCCCCCCCCCCC(=O)N[C@@H](CCCCN)C(=O)N1CCC[C@H]1C(N)=O [HB2202, Pal-KP-NH2] (Palmitoyl-Lys-Pro-NH2)
Toxicity EpiDerm: >2000 µg/mL

compound: CCCCCCCCCCCCCCCC(=O)N[C@@H](CCCCN)C(=O)N1CCC[C@H]1C(=O)N[C@@H](CC(C)C)C(N)=O [HB2209, Pal-KPL-NH2] (Palmitoyl-Lys-Pro-Leu-NH2)
Toxicity EpiDerm: >2000 µg/mL

compound: CCCCCCCCCCCCCCCC(=O)N[C@@H](CCCCN)C(=O)N1CCC[C@H]1C(=O)N[C@H](C(N)=O)C(C)C [HB2180, Pal-KPV-NH2] (Palmitoyl-Lys-Pro-Val-NH2)
Toxicity EpiDerm: >2000 µg/mL

compound: CCCCCCCCCCCCCCCC(=O)N[C@@H](CCCCN)C(=O)N1CCC[C@@H]1C(=O)N[C@H](C(N)=O)[C@@H](C)O [HB2178, Pal-K-dPT-NH2] (Palmitoyl-Lys-[dP]-Thr-NH2)
Toxicity EpiDerm: >2000 µg/mL

Consider now this further compound.
Reported Toxicity EpiDerm for CCCCCCCCCCCCCCCC(=O)N[C@@H](CCCCN)C(=O)N1CCC[C@@H]1C(N)=O [HB2203, Pal-K-dP-NH2] (Palmitoyl-Lys-[dP]-NH2) : what is it?
>2000 µg/mL

---

Tested on: EpiDerm (EPI-200) skin tissue
Assay: Skin tissue toxicity, EpiDerm skin model with MTT assay
Type: cell-based
Details: tissue viability (MTT), treated 20 hr
Where a SMILES comes first, the peptide text is derived from it. [ ]: non-standard residue; d: D form.
observable: Toxicity EpiDerm

molecule: CC(C)[C@H](NC(=O)[C@@H]1CCCN1C(=O)[C@@H](N)CCCCN)C(N)=O [HB2068, KPV-NH2, reference compound] (H-Lys-Pro-Val-NH2)
reportedValue: >2000 µg/mL
--
molecule: C[C@@H](O)[C@H](NC(=O)[C@H]1CCCN1C(=O)[C@@H](N)CCCCN)C(N)=O [HB2089, K-dPT-NH2, reference compound] (H-Lys-[dP]-Thr-NH2)
reportedValue: >2000 µg/mL

Consider now this further molecule.
Reported Toxicity EpiDerm for CC(C)[C@H](NC(=O)[C@@H]1CCCN1C(=O)[C@@H](N)CCCCN)C(=O)O [HB2067, KPV-OH, reference compound] (H-Lys-Pro-Val-OH) : what is it?
>2000 µg/mL
